Test system: NCI-H322M lung
procedureSummary: NCI-60 one-dose screen, 48 h (100 = growth as untreated, 0 = no growth, -100 = all killed)
conditionContext: 10 µM unless noted
This is part of a sample that, as a whole, favours compounds with a hit. Of some 83,000 tested, about 20% had one in any assay.
Each record here notes measured growth.
Hi! Could you send only the number? It should be in %, unit omitted.

Asked: Could you tell me which growth is on file for `O=C(Nc1ccccn1)[C@H](O)[C@@H](O)C(=O)N1CCOCC1` ?
Given back: 115

Asked: And the next one, `Cc1cc(Cc2cc(C)cc(C(C)(C)C)c2O)c(O)c(C(C)(C)C)c1` ?
Given back: 75.7

Asked: And the next one, `O=C(/C=C/c1ccccc1)c1ccc2ccccc2c1` ?
Given back: 99.8

Asked: And the next one, `N#C/C(=C\c1ccc2c(c1)OCO2)n1nnc2ccccc21` ?
Given back: 9.39

Asked: And the next one, `CC(=O)c1cc2c(o1)C(=O)c1ccccc1C2=O` ?
Given back: -92.7

Asked: And the next one, CCOc1cc(C2C(Cl)C(=O)N2n2cnnc2)ccc1O (stereo unspecified) ?
Given back: 97

Asked: And the next one, `Nc1c(C(=O)c2ccc(Cl)s2)sc2nc3c(cc12)CCCC3` ?
Given back: 103

Asked: And the next one, C=C(CNCCc1ccc(O)cc1)[C@@H]1CC[C@]2(COC3CCCCO3)CC[C@]3(C)[C@H](CC[C@@H]4[C@@]5(C)CCC(NCCO)C(C)(C)[C@@H]5CC[C@]43C)[C@@H]12 (stereo partly specified) ?
Given back: -96.5

Asked: And the next one, `CNC(=O)c1cc(Oc2ccc3nc(Nc4cc(Cl)cc(Cl)c4)ccc3c2)ccn1` ?
Given back: 82.9

Asked: And the next one, `CC(=O)Nc1nccs1` ?
Given back: 88.2

Asked: And the next one, `Cl.Fc1c[c-]c(-c2ccccn2)c(F)c1.[Pt].c1ccc([PH+](c2ccccc2)c2ccccc2[PH+](c2ccccc2)c2ccccc2)cc1` ?
Given back: -99.4

----------
System: SK-OV-3 ovarian
procedureSummary: NCI-60 one-dose screen, 48 h (100 = growth as untreated, 0 = no growth, -100 = all killed)
conditionContext: 10 µM unless noted
The panel holds about 83,000 compounds, 20% with a hit somewhere; the sample as a whole holds those more often.
// label 0 strictly below 90% in growth; label 1 otherwise

# compound, measuredTarget, assignedClass
data = [
    ("CCN(CC)c1ccc(Nc2ccc(CC(=O)c3ccccc3)cc2)cc1", "SK-OV-3 ovarian", "label 1"),
    ("CN(C)CCC(O)(Cc1ccccc1)c1ccccc1 (stereo unspecified)", "SK-OV-3 ovarian", "label 1"),
    ("COc1cc(/C=C/C(=O)c2ccc(Nc3nc(Nc4ccccc4)nc(Nc4ccc(Cl)cc4)n3)cc2)cc(OC)c1OC", "SK-OV-3 ovarian", "label 0"),
    ("COc1ccc(/C(C)=C(\\c2ccc(Cl)cc2)c2ccc(OCCN(C)C)cc2)cc1F", "SK-OV-3 ovarian", "label 1"),
]

Continue with the compound presented below.
Asked: Tell me whether growth is at least 90% here: `Cc1cc(-c2ccccc2)cc(SC#N)[n+]1[O-]`
Given back: label 0

----------
Test system: A549/ATCC NSCLC
procedureSummary: NCI-60 one-dose screen, 48 h (100 = growth as untreated, 0 = no growth, -100 = all killed)
conditionContext: 10 µM unless noted
The panel holds about 83,000 compounds, 20% with a hit somewhere; the sample as a whole holds those more often.
// Not fulfilled strictly below 80% in growth; Fulfilled otherwise

# compound, assignedClass
measured = [
    ("CN=C1C=CC(=C(c2ccc(N(C)C)cc2)c2ccc(N(C)C)cc2)C=C1", "Not fulfilled"),
    ("O=c1[nH]c(=O)n(C2CC(O)C(CO)O2)cc1CO (stereo not given)", "Fulfilled"),
    ("CCCCS(=O)(=O)Oc1ccc(-c2nc(C)c(C(=O)OCC)s2)cc1C=O", "Fulfilled"),
]

Asked: Tell me whether growth is at least 80% here: `Cc1cc(N(CCCNc2ccnc3cc(Cl)ccc23)Cc2ccccn2)nc(N2CCCC2)n1`
Given back: Not fulfilled
